system: LLC-PK1 control cells; assay: Cytotoxic drug sensitivity assay (3H-thymidine); assay type: cell-based, porcine; conditions: Sus scrofa, 72 h, 3 days with drug
EC50 overview

{"molecule": "COc1cccc2c1C(=O)c1c(O)c3c(c(O)c1C2=O)C[C@@](O)(C(=O)CO)C[C@@H]3O[C@H]1C[C@H](N)[C@H](O)[C@H](C)O1 [doxorubicin]", "EC50": "34200 pM"}
{"molecule": "CC[C@]1(O)C[C@H]2CN(CCc3c([nH]c4ccccc34)[C@@](C(=O)OC)(c3cc4c(cc3OC)N(C=O)[C@H]3[C@@](O)(C(=O)OC)[C@H](OC(C)=O)[C@]5(CC)C=CCN6CC[C@]43[C@@H]65)C2)C1 [vincristine]", "EC50": "370 pM"}
{"molecule": "CC[C@]1(O)C[C@@H]2CN(CCc3c([nH]c4ccccc34)[C@@](C(=O)OC)(c3cc4c(cc3OC)N(C)[C@H]3[C@@](O)(C(=O)OC)[C@H](OC(C)=O)[C@]5(CC)C=CCN6CC[C@]43[C@@H]65)C2)C1 [vinblastine]", "EC50": "660 pM"}

###

system: LLC-PK1 control cells; conditions: protease inhibitor alone, 5 μM

{"structure_string": "CC(C)c1nc(CN(C)C(=O)N[C@H](C(=O)N[C@@H](Cc2ccccc2)C[C@H](O)[C@H](Cc2ccccc2)NC(=O)OCc2cncs2)C(C)C)cs1", "Rate of transfer dQ/dt ± s.d., B → A": 11.0}
{"structure_string": "CC(C)(C)NC(=O)[C@@H]1CN(Cc2cccnc2)CCN1C[C@@H](O)C[C@@H](Cc1ccccc1)C(=O)N[C@H]1c2ccccc2C[C@H]1O", "Rate of transfer dQ/dt ± s.d., B → A": 6.69}
{"structure_string": "CC(C)(C)NC(=O)[C@@H]1C[C@@H]2CCCC[C@@H]2CN1C[C@@H](O)[C@H](Cc1ccccc1)NC(=O)[C@H](CC(N)=O)NC(=O)c1ccc2ccccc2n1", "Rate of transfer dQ/dt ± s.d., B → A": 8.03}
{"structure_string": "CC(C)CN(C[C@@H](O)[C@H](Cc1ccccc1)NC(=O)O[C@H]1CCOC1)S(=O)(=O)c1ccc(N)cc1", "Rate of transfer dQ/dt ± s.d., B → A": 11.6}

###

The compounds listed here are annotated with their Rate of transfer dQ/dt ± s.d., A → B.
system: LLC-PK1 control cells; settings: protease inhibitor alone, 5 μM

{"compound": "Cc1cccc(C)c1OCC(=O)N[C@@H](Cc1ccccc1)[C@@H](O)C[C@H](Cc1ccccc1)NC(=O)[C@H](C(C)C)N1CCCNC1=O [lopinavir]", "tested_on": "LLC-PK1 control cells", "Rate of transfer dQ/dt ± s.d., A → B": 9.21}
{"compound": "CC(C)c1nc(CN(C)C(=O)N[C@H](C(=O)N[C@@H](Cc2ccccc2)C[C@H](O)[C@H](Cc2ccccc2)NC(=O)OCc2cncs2)C(C)C)cs1 [ritonavir]", "tested_on": "LLC-PK1 control cells", "Rate of transfer dQ/dt ± s.d., A → B": 6.46}
{"compound": "CC(C)CN(C[C@@H](O)[C@H](Cc1ccccc1)NC(=O)O[C@H]1CCOC1)S(=O)(=O)c1ccc(N)cc1 [amprenavir]", "tested_on": "LLC-PK1 control cells", "Rate of transfer dQ/dt ± s.d., A → B": 9.33}
{"compound": "CC(C)(C)NC(=O)[C@@H]1C[C@@H]2CCCC[C@@H]2CN1C[C@@H](O)[C@H](Cc1ccccc1)NC(=O)[C@H](CC(N)=O)NC(=O)c1ccc2ccccc2n1 [saquinavir]", "tested_on": "LLC-PK1 control cells", "Rate of transfer dQ/dt ± s.d., A → B": 3.02}
{"compound": "CC(C)(C)NC(=O)[C@@H]1CN(Cc2cccnc2)CCN1C[C@@H](O)C[C@@H](Cc1ccccc1)C(=O)N[C@H]1c2ccccc2C[C@H]1O [indinavir]", "tested_on": "LLC-PK1 control cells", "Rate of transfer dQ/dt ± s.d., A → B": 7.17}
